Data credit: the Human Domainome abundance scans (Beltran et al. 2025)

B1: Gamma-crystallin D, residues 90 to 170; numbered along this chain, P07320 (parent)
chain: IRLYEREDYRGQMIEFTEDCSCLQDRFRFNEIHSLNVLEGSWVLYELSNYRGRQYLLMPGDYRRYQDWGATNARVGSLRRV

variants of: B1; assay: abundance fitness (aPCA) (normalised: wild type 0, dead -1); higher = more abundant; growth selection in yeast, the domain comes from the species named; conditions: Homo sapiens
measured_quantity: abundance fitness

{"mutation_name": "R10G", "abundance fitness": -0.004}
{"mutation_name": "L56M", "abundance fitness": 0.279}
{"mutation_name": "L38T", "abundance fitness": -0.055}
{"mutation_name": "C22P", "abundance fitness": -0.104}

variant G52M , abundance fitness observed: -0.57

variant L56V , abundance fitness observed: -0.027

variant Q24N , abundance fitness observed: -0.022

variant F29R , abundance fitness observed: 0.117

variant S41Y , abundance fitness observed: -0.078
